Target: P-gp (Homo sapiens, UniProt P08183)
Sequence (P08183 whole entry): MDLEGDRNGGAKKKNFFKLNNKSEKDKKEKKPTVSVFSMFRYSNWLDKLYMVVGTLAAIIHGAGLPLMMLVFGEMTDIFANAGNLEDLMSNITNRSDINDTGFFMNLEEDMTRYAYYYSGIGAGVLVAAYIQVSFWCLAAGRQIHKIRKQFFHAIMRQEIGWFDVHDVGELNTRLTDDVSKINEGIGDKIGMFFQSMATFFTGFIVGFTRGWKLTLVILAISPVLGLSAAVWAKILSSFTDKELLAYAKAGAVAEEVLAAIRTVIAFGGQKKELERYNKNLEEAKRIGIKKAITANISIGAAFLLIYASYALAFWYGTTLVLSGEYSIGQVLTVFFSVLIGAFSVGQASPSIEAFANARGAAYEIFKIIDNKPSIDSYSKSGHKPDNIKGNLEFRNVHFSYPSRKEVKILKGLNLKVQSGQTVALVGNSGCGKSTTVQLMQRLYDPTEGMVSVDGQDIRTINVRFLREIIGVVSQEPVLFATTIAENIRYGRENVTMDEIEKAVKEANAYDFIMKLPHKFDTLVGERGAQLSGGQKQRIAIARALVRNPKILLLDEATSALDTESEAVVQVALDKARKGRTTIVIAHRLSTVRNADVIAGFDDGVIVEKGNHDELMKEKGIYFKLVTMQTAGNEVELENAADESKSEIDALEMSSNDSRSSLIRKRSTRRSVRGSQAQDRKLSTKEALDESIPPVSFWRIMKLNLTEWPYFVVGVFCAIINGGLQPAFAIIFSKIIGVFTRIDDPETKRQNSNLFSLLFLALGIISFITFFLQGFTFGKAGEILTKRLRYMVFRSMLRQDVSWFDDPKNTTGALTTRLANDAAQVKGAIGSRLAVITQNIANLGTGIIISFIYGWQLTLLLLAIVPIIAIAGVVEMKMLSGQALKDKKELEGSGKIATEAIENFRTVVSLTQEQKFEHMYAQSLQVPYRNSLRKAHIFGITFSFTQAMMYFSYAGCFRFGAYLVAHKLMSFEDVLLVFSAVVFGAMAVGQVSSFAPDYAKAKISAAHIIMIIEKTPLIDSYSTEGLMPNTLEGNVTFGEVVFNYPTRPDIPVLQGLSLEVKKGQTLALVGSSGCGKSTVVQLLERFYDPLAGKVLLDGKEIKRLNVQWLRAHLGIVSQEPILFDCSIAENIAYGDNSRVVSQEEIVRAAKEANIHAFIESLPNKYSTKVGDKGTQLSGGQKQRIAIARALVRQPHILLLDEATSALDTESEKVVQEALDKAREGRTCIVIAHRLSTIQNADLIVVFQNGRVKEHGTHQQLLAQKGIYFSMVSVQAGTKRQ
Experiment: P-gp efflux ratio
Assay type: in vitro ADME
Conditions: not told
Square brackets hold non-standard residues; d marks the D form. Peptide text beside a SMILES is read from it. Gly(N-CH2-oxan-4-yl) = O=C(O)CNCC1CCOCC1; NCyclohexylmethylGly = O=C(O)CNCC1CCCCC1; NMeA = CN[CH](C)C(=O)O; NEtG = CCNCC(=O)O
Listed here: items and their measured efflux ratio.
READOUT_KIND: efflux ratio

{"COMPOUND": "CCN1CC(=O)N[C@@H](CC(C)C)C(=O)N(C)[C@@H](C)C(=O)N[C@@H](CC(C)C)C(=O)N2CCC[C@@H]2C(=O)N(CC2CCOCC2)CC(=O)N[C@@H](CC(C)C)C(=O)N(C)[C@@H](C)C(=O)N[C@@H](Cc2ccccc2)C(=O)N2CCC[C@@H]2C1=O [A09] (cyclo([NEtG]L[NMeA]L[dP][Gly(N-CH2-oxan-4-yl)]L[NMeA]F[dP]))", "READOUT_KIND": "efflux ratio", "MEASURED_NUMBER": 46.9}
{"COMPOUND": "CCN1CC(=O)NC(CC(C)C)C(=O)N(C)C(C)C(=O)NC(CC(C)C)C(=O)N2CCCC2C(=O)N(CC2CCCCC2)CC(=O)NC(CC(C)C)C(=O)N(C)C(C)C(=O)NC(Cc2ccccc2)C(=O)N2CCCC2C1=O (stereo not drawn) [A08] (cyclo([NEtG]L[NMeA]LP[NCyclohexylmethylGly]L[NMeA]FP); configuration not given here)", "READOUT_KIND": "efflux ratio", "MEASURED_NUMBER": 8.5}
{"COMPOUND": "CCN1CC(=O)NC(CC(C)C)C(=O)N(C)C(C)C(=O)NC(CC(C)C)C(=O)N2CCCC2C(=O)N(CC2CCOCC2)CC(=O)NC(CC(C)C)C(=O)N(C)C(C)C(=O)NC(C)C(=O)N2CCCC2C1=O (stereo not drawn) [A03] (cyclo([NEtG]L[NMeA]LP[Gly(N-CH2-oxan-4-yl)]L[NMeA]AP); configuration not given here)", "READOUT_KIND": "efflux ratio", "MEASURED_NUMBER": 6.4}
